Reference source: patent US20160259918A1

Tested on: cell line HS695T
Assay: Cell viability via Trypan blue staining in cell culture experiments
Format: cell-based
Settings: Homo sapiens, Hs 695T; HS695T; read-out: sensitivity classification according to IC50 determined by cell culture experiments
Measurement Kind: IC50

IN: Which IC50 is listed for CCN(CC)CCNC(=O)c1c(C)[nH]c(/C=C2\C(=O)Nc3ccc(F)cc32)c1C [Sunitinib] ?
OUT: > 2 µM
